assay_system: human B1R receptor (CHO K1 cells stably transfected with the human B1R gene) (Homo sapiens)
Construct: expressed in transfected cells; host or cells: CHO K1 cells (Chinese hamster ovary), stably transfected
Sequence (P46663 1-353): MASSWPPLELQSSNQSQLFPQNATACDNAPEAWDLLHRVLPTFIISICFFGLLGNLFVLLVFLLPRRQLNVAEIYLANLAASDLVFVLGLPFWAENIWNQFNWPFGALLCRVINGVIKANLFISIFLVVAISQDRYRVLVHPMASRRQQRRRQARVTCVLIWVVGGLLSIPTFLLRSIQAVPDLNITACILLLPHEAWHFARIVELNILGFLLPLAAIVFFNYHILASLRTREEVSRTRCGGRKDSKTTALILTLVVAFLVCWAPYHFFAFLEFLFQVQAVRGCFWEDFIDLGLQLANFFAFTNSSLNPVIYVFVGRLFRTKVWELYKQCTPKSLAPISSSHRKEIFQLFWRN
protocol: Functional study on the bradykinin receptor 1 (B1R), Ca2+ fluorescence (Fluo-4) FLIPR/Novostar assay, hB1R cells
Assay type: cell-based
test_parameters: CHO-K1, read-out: % inhibition (human B1R) at 10 μM
assay_endpoint: inhibition at 10 µM
Please don't drop the unit; write it after the number.

Record excerpt, results attached:
>>> reading("CN(C(=O)c1ccc2c(c1)CC[C@H]2NC(=O)c1ccccc1Cl)C1CCN(c2ccncc2)CC1 [Example H-17]")
"100%"
>>> reading("CN(C(=O)c1ccc2c(c1)[C@H](NC(=O)c1ccccc1Cl)CC2)C1CCN(c2ccncc2)CC1 [Example H-06]")
"100%"
>>> reading("CN(C(=O)c1ccc2c(c1)[C@H](NC(=O)c1ccccc1Cl)CC2)C1CCN(c2ccnc(C#N)c2)CC1 [Example H-123]")
"97%"
>>> reading("CCN(C(=O)c1cccc(F)c1Cl)[C@@H]1CCc2ccc(C(=O)N(C)C3CCN(c4cc(C)nc(C)n4)CC3)cc21 [Example H-197]")
"100%"
>>> reading("CN1CCC(N2CCC(NC(=O)c3ccc4c(c3)CC[C@H]4N3Cc4cccc(Cl)c4C3=O)CC2)CC1 [Example H-42]")
"65%"
>>> reading("CN(C(=O)c1ccc2c(c1)[C@H](NC(=O)c1ccccc1Cl)CCO2)C1CCN(c2ccncc2)CC1 [Example H-20]")
"100%"

Turning now to a further molecule:
## Input Given the molecule CN(C(=O)c1ccc2c(c1)[C@H](NC(=O)c1ccccc1Cl)CC2)C1CCN(c2ccncn2)CC1 [Example H-147] , what is its reported inhibition at 10 µM?
## Output 99%

###

assay_system: B1R receptor of the rat (CHO K1 cells stably transfected with the B1R gene of the rat) (Rattus norvegicus)
Construct: expressed in transfected cells; host or cells: CHO K1 cells (Chinese hamster ovary), stably transfected
Sequence (P97583 1-337): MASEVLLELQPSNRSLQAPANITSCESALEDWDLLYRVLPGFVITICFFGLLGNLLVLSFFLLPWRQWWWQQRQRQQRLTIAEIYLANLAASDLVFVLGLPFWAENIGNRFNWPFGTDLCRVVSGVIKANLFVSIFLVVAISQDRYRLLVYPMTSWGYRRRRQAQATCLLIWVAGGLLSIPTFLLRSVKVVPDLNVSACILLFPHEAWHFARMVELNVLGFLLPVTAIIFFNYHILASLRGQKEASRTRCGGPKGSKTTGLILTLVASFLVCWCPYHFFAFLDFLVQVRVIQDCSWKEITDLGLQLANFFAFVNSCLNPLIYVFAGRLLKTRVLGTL
protocol: Functional study on the bradykinin receptor 1 (B1R), Ca2+ fluorescence (Fluo-4) FLIPR/Novostar assay, rB1R cells
Format: cell-based
test_parameters: CHO-K1, 10 μM, read-out: % Inhibition (r-B1R) at 10 μM
Catalogue of inhibition at 10 µM values
Please don't drop the unit; write it after the number.

>>> reading("COCC(=O)NC1CCOc2ccc(C(=O)N(C)C3CCN(c4ccncc4)CC3)cc21 (stereo not shown)")
"51%"

## Input Given the molecule Cc1cc(N2CCC(N(C)C(=O)c3ccc4c(c3)C(N(C)C(=O)CCC3CCCC3)CC4)CC2)cc(C)n1 (stereo not shown) , what is its reported inhibition at 10 µM?
## Output 110%

## Input Given the molecule CN(C(=O)c1ccc2c(c1)C(NC(=O)Nc1cc(Cl)ccc1Cl)CC2(C)C)C1CCN(c2ccncc2)CC1 (stereo not shown) , what is its reported inhibition at 10 µM?
## Output 52%

## Input Given the molecule CN(C(=O)c1ccc2c(c1)C(NC(=O)c1cc(F)ccc1Cl)CC2(C)C)C1CCN(c2ccncc2)CC1 (stereo not shown) , what is its reported inhibition at 10 µM?
## Output 110%

Values were extracted from patent US8680159B2.
